Target: human SCD1 (hSCD-1) (Homo sapiens)
Sequence (O00767 1-359): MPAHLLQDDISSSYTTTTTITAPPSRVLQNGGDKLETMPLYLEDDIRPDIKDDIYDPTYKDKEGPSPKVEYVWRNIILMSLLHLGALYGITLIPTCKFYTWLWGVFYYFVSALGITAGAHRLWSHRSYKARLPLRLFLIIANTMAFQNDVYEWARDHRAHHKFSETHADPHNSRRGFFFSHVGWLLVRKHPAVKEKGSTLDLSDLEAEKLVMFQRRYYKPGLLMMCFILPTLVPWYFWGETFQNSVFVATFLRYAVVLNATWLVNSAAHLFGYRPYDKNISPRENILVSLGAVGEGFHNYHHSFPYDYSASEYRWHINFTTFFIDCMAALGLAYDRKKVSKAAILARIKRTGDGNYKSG
I'd be grateful if you could share measured IC50 for these entries.
Numbers only, in nM.

Observe how each entry below is paired with its result.
O=C(Nc1ccccc1)c1cnc(N2CC(Oc3cc(F)ccc3Br)C2)cn1    29
O=C(Nc1ccc(-c2cc[nH]n2)cc1)c1cnc(N2CC(Oc3cc(F)ccc3Br)C2)cn1    16
O=C(Nc1ccsc1)c1cnc(N2CC(Oc3cc(F)ccc3Br)C2)cn1    24

Hi team, please reply with IC50 for each item in this list.
1. CNC(=O)c1cnc(N2CC(Oc3cc(F)ccc3Br)C2)cn1
2. CS(=O)(=O)c1ccc(NC(=O)c2cnc(N3CC(Oc4cc(F)ccc4Br)C3)cn2)cc1

1. 45
2. 11
